Test: Toxicity liver stage against HepG2, at 10uM
Assay type: cell-based
Parameters: test concentration 10 uM, cell line HepG2-A16-CD81EGFP
Conditions: human, HepG2-A16-CD81EGFP cells; read-out: INHIBITION
MEASURE: cytotoxicity at 10 µM (%)
Could you give me the number in %? Just the number is fine.

INSERT INTO results (molecule, measure, scale_unit, assay_result) VALUES
  ('CCOCC1CN(Cc2nccs2)Cc2nn(CC3CC3)cc21 (stereo not given)', 'cytotoxicity at 10 µM', '%', -1.81),
  ('Cc1nn(-c2ccccc2)nc1C(=O)NCC(c1ccco1)N(C)C (stereo not given)', 'cytotoxicity at 10 µM', '%', 6.51);

Request: Please look up its cytotoxicity at 10 µM: C=C(C)COc1ccccc1CN1CCCC(C(=O)NCCCO)C1 (stereo not given)
Result: 7.36

Request: Please look up its cytotoxicity at 10 µM: CCC(O)CN1CCN(C(=O)c2ccc(N(C)C)nn2)CC1 (stereo not given)
Result: -6.83

Request: Please look up its cytotoxicity at 10 µM: CN(C)CCn1c2c(ccc1=O)CC(NCc1cccnc1)CC2 (stereo not given)
Result: 14.4

Request: Please look up its cytotoxicity at 10 µM: COCCC(=O)N1CCN(CC2CC2)c2nc(C)ccc2C1
Result: 9.88

Request: Please look up its cytotoxicity at 10 µM: COc1ccc(-c2nnsc2C(=O)N2CCSCC2)cc1
Result: -1.17

Request: Please look up its cytotoxicity at 10 µM: CC(C)n1cnnc1CN(C)C(=O)c1cnn2ccccc12
Result: 1.31

Origin of measurements: ChEMBL document CHEMBL4513216
